system: HUVEC/MSC spheroids viability; assay: Human HUVEC/MSC cell line growth inhibition [KRAS2]; settings: second compound 0.316 µM; first compound 1 µM; active compounds read low;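 note: percent of DMSO vehicle control luminescence so 100% = untreated viability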
experimental endpoint: viability, T/C (%)
Answer in %, number only, no unit symbol.

Give the reported viability, T/C for this compound. CCNC(=O)CC1N=C(c2ccc(Cl)cc2)c2cc(OC)ccc2-n2c(C)nnc21 (stereo not drawn) + CC1OCC2(CCN(c3cnc(Sc4ccnc(N)c4Cl)c(N)n3)CC2)C1N
88.2

Give the reported viability, T/C for this compound. COC(=O)c1ccc2c(C(=Nc3ccc(N(C)C(=O)CN4CCN(C)CC4)cc3)c3ccccc3)c(O)[nH]c2c1 + COc1cc2nc(C)nc(NC(C)c3cc(N)cc(C(F)(F)F)c3)c2cc1OC1CCOC1
39.1

Give the reported viability, T/C for this compound. COC(=O)c1ccc2c(C(=Nc3ccc(N(C)C(=O)CN4CCN(C)CC4)cc3)c3ccccc3)c(O)[nH]c2c1 + CC1OCC2(CCN(c3cnc(Sc4ccnc(N)c4Cl)c(N)n3)CC2)C1N
34.9

Give the reported viability, T/C for this compound. COc1cc(Nc2ncc3c(n2)-c2ccc(Cl)cc2C(c2c(F)cccc2OC)=NC3)ccc1C(=O)O + C=CC(=O)N1CCN(c2nc(=O)n(-c3c(C)ccnc3C(C)C)c3nc(-c4c(O)cccc4F)c(F)cc23)C(C)C1
116

Give the reported viability, T/C for this compound. CC1OCC2(CCN(c3cnc(Sc4ccnc(N)c4Cl)c(N)n3)CC2)C1N (stereo not drawn) + CNCc1ccccc1-c1csc(C(C)Nc2nc(C)nc3cc(OC)c(OC)cc23)c1
69.9

====

test system: HUVEC/MSC spheroids viability; experiment: Human HUVEC/MSC cell line growth inhibition [KRAS2]; conditions: second compound 1 µM; first compound 0.0316 µM; active compounds read low;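 note: percent of DMSO vehicle control luminescence so 100% = untreated viability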
experimental endpoint: viability, T/C

Give the reported viability, T/C for this molecule. CCNC(=O)CC1N=C(c2ccc(Cl)cc2)c2cc(OC)ccc2-n2c(C)nnc21 (stereo not given) + COc1cc2nc(C)nc(NC(C)c3cc(N)cc(C(F)(F)F)c3)c2cc1OC1CCOC1
89.8%

Give the reported viability, T/C for this molecule. COC(=O)c1ccc2c(C(=Nc3ccc(N(C)C(=O)CN4CCN(C)CC4)cc3)c3ccccc3)c(O)[nH]c2c1 + CNCc1ccccc1-c1csc(C(C)Nc2nc(C)nc3cc(OC)c(OC)cc23)c1
72.9%

Give the reported viability, T/C for this molecule. Cn1ncnc1[C@H]1c2n[nH]c(=O)c3cc(F)cc(c23)N[C@@H]1c1ccc(F)cc1 + C=CC(=O)N1CCN(c2nc(=O)n(-c3c(C)ccnc3C(C)C)c3nc(-c4c(O)cccc4F)c(F)cc23)C(C)C1
106%

Give the reported viability, T/C for this molecule. COc1cc(Nc2ncc3c(n2)-c2ccc(Cl)cc2C(c2c(F)cccc2OC)=NC3)ccc1C(=O)O + COc1cc2nc(C)nc(NC(C)c3cc(N)cc(C(F)(F)F)c3)c2cc1OC1CCOC1
86.9%

Give the reported viability, T/C for this molecule. COc1cc2nccc(Oc3ccc(NC(=O)C4(C(=O)Nc5ccc(F)cc5)CC4)cc3)c2cc1OC + COc1cc2nc(C)nc(NC(C)c3cc(N)cc(C(F)(F)F)c3)c2cc1OC1CCOC1
61.6%

Give the reported viability, T/C for this molecule. Cn1ncnc1[C@H]1c2n[nH]c(=O)c3cc(F)cc(c23)N[C@@H]1c1ccc(F)cc1 + CC1OCC2(CCN(c3cnc(Sc4ccnc(N)c4Cl)c(N)n3)CC2)C1N
93.8%

Give the reported viability, T/C for this molecule. CC(C)NCC(C(=O)N1CCN(c2ncnc3c2C(C)CC3O)CC1)c1ccc(Cl)cc1 (stereo not given) + C=CC(=O)N1CCN(c2nc(=O)n(-c3c(C)ccnc3C(C)C)c3nc(-c4c(O)cccc4F)c(F)cc23)C(C)C1
105%

Give the reported viability, T/C for this molecule. COc1cc2nccc(Oc3ccc(NC(=O)C4(C(=O)Nc5ccc(F)cc5)CC4)cc3)c2cc1OC + CC1OCC2(CCN(c3cnc(Sc4ccnc(N)c4Cl)c(N)n3)CC2)C1N
72.6%

Give the reported viability, T/C for this molecule. CCN1CCN(Cc2ccc(Nc3ncc(F)c(-c4cc(F)c5nc(C)n(C(C)C)c5c4)n3)nc2)CC1 + CNCc1ccccc1-c1csc(C(C)Nc2nc(C)nc3cc(OC)c(OC)cc23)c1
91.8%
